Test system: RS4; 11 cells
ASSAY_OVERVIEW: Cell growth inhibition by WST assay with Cpd. C co-treatment (CRBN competition)
Assay type: cell-based
CONDITION_DETAILS: 4 days, + 10 uM Cpd. C
This listing pairs compounds with measured HillSlope.
Simply state the number, no unit and no words.

Below: 3 compounds and their reported HillSlope.
COMPOUND: O=C1CCC(N2Cc3c(NCCOCCOCCOCCNC(=O)c4ccc(NC(=O)[C@@H]5NC6(CCCCC6)[C@@]6(C(=O)Nc7cc(Cl)ccc76)[C@H]5c5cccc(Cl)c5F)cc4)cccc3C2=O)C(=O)N1 (stereo partly shown) [Cpd. No. 22]
HillSlope: −1.701

COMPOUND: O=C1CCC(N2C(=O)c3cccc(NCCOCCOCCNC(=O)c4ccc(NC(=O)[C@@H]5NC6(CCCCC6)[C@@]6(C(=O)Nc7cc(Cl)ccc76)[C@H]5c5cccc(Cl)c5F)cc4)c3C2=O)C(=O)N1 (stereo partly shown) [Cpd. No. 14]
HillSlope: −1.705

COMPOUND: O=C1CCC(N2C(=O)c3cccc(NCCOCCOCCOCCNC(=O)c4ccc(NC(=O)[C@@H]5NC6(CCCCC6)[C@@]6(C(=O)Nc7cc(Cl)ccc76)[C@H]5c5cccc(Cl)c5F)cc4)c3C2=O)C(=O)N1 (stereo partly shown) [Cpd. No. 15]
HillSlope: −1.654

Now look at this entry.
Inquiry: Could you tell me which HillSlope is on file for O=C(O)c1ccc(NC(=O)[C@@H]2NC3(CCCCC3)[C@@]3(C(=O)Nc4cc(Cl)ccc43)[C@H]2c2cccc(Cl)c2F)cc1 [Cpd. A, reference compound] ?
Reply text: −1.569

----------
This listing pairs compounds with measured LogIC50.
Tested on: RS4; 11 cells
ASSAY_OVERVIEW: Cell growth inhibition by WST assay with Cpd. C co-treatment (CRBN competition)
Type: cell-based
Parameters: unit not given here
CONDITION_DETAILS: 4 days, + 10 uM Cpd. C
Simply state the number, no unit and no words.

Below: 3 compounds and their reported LogIC50.
COMPOUND: O=C1CCC(N2C(=O)c3cccc(NCCOCCOCCNC(=O)c4ccc(NC(=O)[C@@H]5NC6(CCCCC6)[C@@]6(C(=O)Nc7cc(Cl)ccc76)[C@H]5c5cccc(Cl)c5F)cc4)c3C2=O)C(=O)N1 (stereo partly shown)
NUMBER: −1.244
//
COMPOUND: O=C1CCC(N2C(=O)c3cccc(NCCOCCOCCOCCNC(=O)c4ccc(NC(=O)[C@@H]5NC6(CCCCC6)[C@@]6(C(=O)Nc7cc(Cl)ccc76)[C@H]5c5cccc(Cl)c5F)cc4)c3C2=O)C(=O)N1 (stereo partly shown)
NUMBER: −1.356
//
COMPOUND: O=C1CCC(N2Cc3c(NCCOCCOCCOCCNC(=O)c4ccc(NC(=O)[C@@H]5NC6(CCCCC6)[C@@]6(C(=O)Nc7cc(Cl)ccc76)[C@H]5c5cccc(Cl)c5F)cc4)cccc3C2=O)C(=O)N1 (stereo partly shown)
NUMBER: −1.209

Now look at this entry.
Inquiry: Recorded LogIC50 for O=C(O)c1ccc(NC(=O)[C@@H]2NC3(CCCCC3)[C@@]3(C(=O)Nc4cc(Cl)ccc43)[C@H]2c2cccc(Cl)c2F)cc1 [Cpd. A, reference compound] with RS4; 11 cells, please?
Reply text: −1.317
